# Protocol Summary: in vitro
# Settings: monkey
Measure Name: CC50 (nM)
One number for each entry, in nM.

I have this compound here, COc1cccc2c1C(=O)c1c(O)c3c(c(O)c1C2=O)C[C@@](O)(C(=O)CO)C[C@@H]3O[C@H]1C[C@H](N)[C@H](O)[C@H](C)O1 [doxorubicin, reference compound] , and I need its recorded CC50.
2510

Attribution: patent US9682114B2
